Target: alpha-1 adrenergic receptor
Experiment: alpha-1 adrenergic receptor radioligand binding assay ([125I]-HEAT, rat cerebral cortex membranes)
Conditions: radioligand used at 40 pM
observation_type: Kd (pM)
Could you give me the number in pM? Just the number is fine.

get_value(item= O=C1c2ccccc2CCC1CNCCc1ccc(O)c(I)c1 (stereo not shown) [[^125I]-HEAT] , readout=Kd) returns 58.9
